molecules and their reported pKi
Target: CRTH2 receptor (hCRTH2) (Homo sapiens, UniProt Q9Y5Y4)
Construct: expressed in transfected cells; host or cells: HEK cells (HEK-hCRTH2 cell line), membranes
Assay: Radioligand binding assay ([3H]PGD2 competition, membranes of HEK-hCRTH2 cell line)
Conditions: 3.0 nM [3H]PGD2, HEK-hCRTH2 membranes, 60 min, room temperature; read-out: Ki
pKi: −log10 of the molar value.

// below: answered molecules
• C[C@@]1(c2nc3cc(Cl)c(F)cc3[nH]2)CC(c2ccc3c(=O)n(-c4ccc(F)cc4)c(CCCCC(=O)O)nc3c2)=NO1 [Example 209] = ≥ 8.00
• CC1(c2ccc(F)c(F)c2)CC(c2ccc3c(=O)n(-c4ccc(F)cc4)c(CCCCC(=O)O)nc3c2)=NO1 (stereo not drawn) [Example 124] = ≥ 8.00
• C[C@@]1(C(=O)Nc2ccccc2O)CC(c2ccc3c(=O)n(-c4ccc(F)cc4)c(CCCCC(=O)O)nc3c2)=NO1 [Example 191] = ≥ 8.00

input: GET /values?readout=pKi&item= CC(O)(c1cc(-c2ccc3c(=O)n(-c4ccc(F)cc4)c(CCCCC(=O)O)nc3c2)no1)c1ccccc1F (stereo not drawn) [Example 129]
output: ≥ 8.00

input: GET /values?readout=pKi&item= O=C(O)CCCCc1nc2cc(-c3cc(CSc4nc5ccccc5[nH]4)on3)ccc2c(=O)n1-c1ccc(F)cc1 [Example 39K]
output: ≥ 8.00

input: GET /values?readout=pKi&item= CC(C)(C)c1ccc(-c2nc(-c3ccc4c(=O)n(-c5ccc(F)cc5)c(CCCCC(=O)O)nc4c3)no2)cc1 [Example 14C]
output: 7.30 to 8.00

input: GET /values?readout=pKi&item= CC1(C(=O)Nc2cc(Cl)c(Cl)cc2O)CC(c2ccc3c(=O)n(-c4ccc(F)cc4)c(CCCCC(=O)O)nc3c2)=NO1 (stereo not drawn) [Example 165]
output: 7.30 to 8.00

input: GET /values?readout=pKi&item= O=C(O)CCCCc1nc2cc(-c3noc(C4CCc5ccccc5C4)n3)ccc2c(=O)n1-c1ccc(F)cc1 (stereo not drawn) [Example 247]
output: 7.30 to 8.00

input: GET /values?readout=pKi&item= O=C(O)CCCCc1nc2cc(-c3cc(CNC(=O)c4ccc(F)cc4)on3)ccc2c(=O)n1-c1ccc(F)cc1 [Example 24R]
output: 7.30 to 8.00

* * *

Target: CRTH2 receptor (hCRTH2) (Homo sapiens, UniProt Q9Y5Y4)
Construct: expressed in transfected cells; host or cells: HEK cells (HEK-hCRTH2 cell line), membranes
Experiment: Radioligand binding assay ([3H]PGD2 competition, membranes of HEK-hCRTH2 cell line)
Details: 3.0 nM [3H]PGD2, HEK-hCRTH2 membranes, 60 min, room temperature; read-out: Ki
molecules and their reported Ki

* CC1(c2nc3ccc(F)cc3[nH]2)CC(c2ccc3c(=O)n(-c4ccc(F)cc4)c(CCCCC(=O)O)nc3c2)=NO1 (stereo not shown) | ≤ 10 nM
* O=C(O)CCCCc1nc2cc(-c3cc(COCc4ccc(-c5ccccc5)cc4)on3)ccc2c(=O)n1-c1ccc(F)cc1 | 10 to 50 nM
* O=C(O)CCCCc1nc2cc(-c3noc(-c4ccc(C(F)(F)F)cc4)n3)ccc2c(=O)n1-c1ccc(F)cc1 | 10 to 50 nM

input: GET /values?readout=Ki&item= O=C(O)CCCCc1nc2cc(-c3cn(-c4cccnc4)nn3)ccc2c(=O)n1-c1ccc(F)cc1
output: ≤ 10 nM

input: GET /values?readout=Ki&item= CC(=O)N1CCC2(CC1)CC(c1ccc3c(=O)n(-c4ccc(Cl)cc4)c(CCCCC(=O)O)nc3c1)=NO2 [Example 15U]
output: 10 to 50 nM

input: GET /values?readout=Ki&item= CC1(c2nc3cc(Cl)ccc3[nH]2)CC(c2ccc3c(=O)n(-c4ccc(Cl)cc4)c(CCCCC(=O)O)nc3c2)=NO1 (stereo not shown)
output: ≤ 10 nM

input: GET /values?readout=Ki&item= O=C(O)CCCCc1nc2cc(-c3cc(C(O)c4ccc5ccccc5n4)on3)ccc2c(=O)n1-c1ccc(F)cc1 (stereo not shown) [Example 25H]
output: 10 to 50 nM

* * *

Biological target: CRTH2 receptor (hCRTH2) (Homo sapiens)
Construct: expressed in transfected cells; host or cells: HEK cells (HEK-hCRTH2 cell line), membranes
Sequence (Q9Y5Y4 1-395): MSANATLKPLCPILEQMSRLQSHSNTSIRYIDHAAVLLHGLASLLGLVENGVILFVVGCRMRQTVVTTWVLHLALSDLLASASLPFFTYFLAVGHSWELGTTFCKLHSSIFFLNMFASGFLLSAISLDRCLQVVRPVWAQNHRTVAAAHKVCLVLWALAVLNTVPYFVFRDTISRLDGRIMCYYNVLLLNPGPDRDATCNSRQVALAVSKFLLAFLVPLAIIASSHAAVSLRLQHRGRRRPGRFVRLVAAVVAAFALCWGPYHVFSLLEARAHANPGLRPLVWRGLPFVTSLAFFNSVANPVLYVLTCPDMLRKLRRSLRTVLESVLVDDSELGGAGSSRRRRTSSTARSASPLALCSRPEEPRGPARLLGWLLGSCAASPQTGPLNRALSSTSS
Assay: Radioligand binding assay ([3H]PGD2 competition, membranes of HEK-hCRTH2 cell line)
Conditions: 3.0 nM [3H]PGD2, HEK-hCRTH2 membranes, 60 min, room temperature; read-out: Ki
pKi: −log10 of the molar value.
resultType: pKi

- O=C(O)CCCCc1nc2cc(-c3cc(C4CC4)on3)ccc2c(=O)n1-c1ccc(F)cc1 [Example 5J]: 7.30 to 8.00
- C[C@@]1([C@@H](O)c2ccccc2)CC(c2ccc3c(=O)n(-c4ccc(F)cc4)c(CCCCC(=O)O)nc3c2)=NO1 [Example 26C]: 7.30 to 8.00
- COc1ccc2[nH]c(S(=O)(=O)Cc3cc(-c4ccc5c(=O)n(-c6ccc(F)cc6)c(CCCCC(=O)O)nc5c4)no3)nc2c1 [Example 39J]: ≥ 8.00

input: GET /values?readout=pKi&item= C[C@@]1(c2nc3ccccn3c2Cl)CC(c2ccc3c(=O)n(-c4ccc(F)cc4)c(CCCCC(=O)O)nc3c2)=NO1 [Example 167]
output: ≥ 8.00

input: GET /values?readout=pKi&item= O=C(O)CCCCc1nc2cc(-c3cc(Cc4ccc(F)cc4)on3)ccc2c(=O)n1-c1ccccc1 [Example 25F]
output: ≥ 8.00

input: GET /values?readout=pKi&item= C[C@@](O)(c1ccc(F)cc1)c1cc(-c2ccc3c(=O)n(-c4ccc(F)cc4)c(CCCCC(=O)O)nc3c2)no1 [Example 258]
output: 7.30 to 8.00

input: GET /values?readout=pKi&item= O=C(O)CCCCc1nc2cc(-c3cc([C@H](O)c4ccc(F)cc4)on3)ccc2c(=O)n1-c1ccccc1 [Example 25E]
output: ≥ 8.00

* * *

Target: CRTH2 receptor (hCRTH2) (Homo sapiens, UniProt Q9Y5Y4)
Construct: expressed in transfected cells; host or cells: HEK cells (HEK-hCRTH2 cell line), membranes
Assay: Radioligand binding assay ([3H]PGD2 competition, membranes of HEK-hCRTH2 cell line)
Details: 3.0 nM [3H]PGD2, HEK-hCRTH2 membranes, 60 min, room temperature; read-out: Ki
pKi: −log10 of the molar value.
resultType: pKi

input: GET /values?readout=pKi&item= C[C@]1(c2nc3cc(F)c(F)cc3[nH]2)CC(c2ccc3c(=O)n(-c4ccc(Cl)cc4)c(CCCCC(=O)O)nc3c2)=NO1
output: 7.30 to 8.00

input: GET /values?readout=pKi&item= O=C(O)CCCCc1nc2cc(-c3cc(-c4nc5ccccc5o4)on3)ccc2c(=O)n1-c1ccc(F)cc1
output: ≥ 8.00

input: GET /values?readout=pKi&item= Cc1cc(-c2ccc3c(=O)n(-c4ccc(F)cc4)c(CCCCC(=O)O)nc3c2)on1
output: ≥ 8.00

input: GET /values?readout=pKi&item= C[C@]1(c2nc3cc(Cl)c(F)cc3[nH]2)CC(c2ccc3c(=O)n(-c4ccc(F)cc4)c(CCCCC(=O)O)nc3c2)=NO1
output: 7.30 to 8.00

input: GET /values?readout=pKi&item= O=C(O)CCCCc1nc2cc(C3=NOC[C@H](c4ccc(F)cc4)N3)ccc2c(=O)n1-c1ccc(F)cc1 [Example 37E]
output: ≥ 8.00

input: GET /values?readout=pKi&item= O=C(O)CCCCc1nc2cc(C3=NOC4(CCCCC4)C3)ccc2c(=O)n1-c1ccc(Cl)cc1 [Example 15Y]
output: ≥ 8.00

input: GET /values?readout=pKi&item= C[C@@]1([C@@H](O)c2ccccc2)CC(c2ccc3c(=O)n(-c4ccccc4)c(CCCCC(=O)O)nc3c2)=NO1 [Example 26i]
output: 7.30 to 8.00

input: GET /values?readout=pKi&item= C[C@@H](OCc1cccc(F)c1)c1cc(-c2ccc3c(=O)n(-c4ccc(F)cc4)c(CCCCC(=O)O)nc3c2)no1
output: ≥ 8.00

input: GET /values?readout=pKi&item= CC1(c2nc3cc(F)c(F)cc3[nH]2)CC(c2ccc3c(=O)n(-c4ccc(F)cc4)c(CCCCC(=O)O)nc3c2)=NO1 (centres unmarked)
output: ≥ 8.00
